These measurements were taken from ChEMBL document CHEMBL1140154.

This section presents compounds with their documented EC50 values.
# System: Glutamate receptor 1 (Rattus norvegicus, UniProt P19490)
# Sequence (P19490 whole entry): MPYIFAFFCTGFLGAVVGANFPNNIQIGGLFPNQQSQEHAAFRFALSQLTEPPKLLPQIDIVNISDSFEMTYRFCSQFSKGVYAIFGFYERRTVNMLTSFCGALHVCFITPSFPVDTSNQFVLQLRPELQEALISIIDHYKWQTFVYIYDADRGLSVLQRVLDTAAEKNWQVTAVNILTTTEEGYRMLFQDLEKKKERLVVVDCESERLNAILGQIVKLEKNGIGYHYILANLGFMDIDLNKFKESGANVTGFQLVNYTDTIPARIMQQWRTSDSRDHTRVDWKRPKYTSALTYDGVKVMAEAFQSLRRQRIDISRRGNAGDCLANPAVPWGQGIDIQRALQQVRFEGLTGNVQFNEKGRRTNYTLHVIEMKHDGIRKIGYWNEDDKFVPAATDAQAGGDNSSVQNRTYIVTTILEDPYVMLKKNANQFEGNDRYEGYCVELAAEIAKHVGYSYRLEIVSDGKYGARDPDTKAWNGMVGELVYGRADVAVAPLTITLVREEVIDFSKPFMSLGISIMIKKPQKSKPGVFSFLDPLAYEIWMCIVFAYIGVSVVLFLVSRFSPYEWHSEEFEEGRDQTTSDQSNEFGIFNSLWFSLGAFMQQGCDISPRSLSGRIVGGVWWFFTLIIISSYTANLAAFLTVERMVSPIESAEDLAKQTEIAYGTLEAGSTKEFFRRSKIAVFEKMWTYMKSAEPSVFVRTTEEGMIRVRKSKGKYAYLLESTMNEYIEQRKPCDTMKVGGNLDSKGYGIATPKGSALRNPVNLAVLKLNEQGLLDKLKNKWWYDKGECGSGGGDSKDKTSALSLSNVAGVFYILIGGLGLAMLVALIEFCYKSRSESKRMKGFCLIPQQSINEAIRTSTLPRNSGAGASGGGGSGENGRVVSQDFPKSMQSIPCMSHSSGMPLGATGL
# Procedure Summary: Agonist activity at cyclothiazide-desensitized rat recombinant flip iGluR1 expressed in Xenopus laevis oocytes by two electrode voltage-clamp electrophysiology method
# Format: functional, cell-based, Oocyte
Result Type: EC50 (µM)

{"Molecular String": "N[C@@H](Cn1c2c(c(=O)[nH]c1=O)CSC2)C(=O)O", "Value Reported": 11.8}
{"Molecular String": "N[C@@H](Cn1cc(F)c(=O)[nH]c1=O)C(=O)O", "Value Reported": 0.38}
{"Molecular String": "N[C@@H](Cn1c(=O)[nH]c(=O)c2sccc21)C(=O)O", "Value Reported": 7.2}
